These measurements were taken from ChEMBL document CHEMBL4330066.

Test: Cytotoxicity against human THP1 cells
Type: cell-based
Settings: THP-1 cells, read-out: TC50 (the source's name)
Kindly state CC50 for each of the entries shown.
Record the value in µM, omitting the unit from your answer.

compound `CN(C)CCCN1C(=O)c2ccc3c4c(c(NCCCn5cc(CO[C@@H]6O[C@H](CO)[C@@H](O[C@@H]7O[C@H](CO)[C@H](O)[C@H](O)[C@H]7O)[C@H](O)[C@H]6O)nn5)cc(c24)C1=O)C(=O)N(CCCN(C)C)C3=O` , CC50 observed: 9.29

compound `CN(C)CCCN1C(=O)c2ccc3c4c(c(NCCCn5cc(CO[C@@H]6O[C@H](CO)[C@@H](O)[C@H](O)[C@H]6O)nn5)cc(c24)C1=O)C(=O)N(CCCN(C)C)C3=O` , CC50 observed: 1.44
